- System: KK mice (4-5 months old) suffering from diabetes mellitus
- experiment summary: Hypoglycemic activity: blood sugar lowering in diabetic KK mice fed the test compound
- Type: in vivo
- assay conditions: 4 per group, powdered feed containing 0.01% of test compound for 3 days, plasma glucose vs control group
Where a name gives a salt, the structure may show the parent alone.
assay endpoint: Blood sugar lowering rate (%)

>>> reported("COC(=O)[C@H](Cc1ccc(OCc2nc3ccc(OC)cc3n2C)cc1)Nc1ccccc1C(=O)c1ccccc1.Cl [Example 16]")
32.1
>>> reported("Cc1cc(Oc2ccc3nc(COc4ccc(C[C@H](Nc5ccccc5C(=O)c5ccccc5)C(=O)O)cc4)n(C)c3c2)cc(C)c1N [Example 20, dihydrochloride]")
40.0
>>> reported("Cn1c(COc2ccc(CC(OCc3ccc(F)cc3)C(=O)O)cc2)nc2ccc(Sc3cc(C(C)(C)C)c(O)c(C(C)(C)C)c3)cc21 (centres unmarked) [Example 4]")
40.8
>>> reported("Cn1c(COc2ccc(CC(OCc3ccc(F)cc3)C(=O)O)cc2)nc2ccc(Oc3ccc(C45CC6CC(CC(C6)C4)C5)cc3)cc21 (centres unmarked) [Example 2]")
58.5
>>> reported("CCOC(Cc1ccc(OCc2nc3ccc(OC)cc3n2C)cc1)C(=O)O.Cl (centres unmarked) [Example 9]")
48.4
